target: TRKA-G667C (Homo sapiens, UniProt P04629, G667C); experiment: FRET-based Z'-Lyte kinase assay; conditions: Z'-Lyte, mean ± SD; read-out: IC50 TRKA-G667C kinase inhibition
MEASUREMENT TYPE: IC50
Give the value; after it, write the unit.

Value of measured IC50 for the entry Cc1c(C#Cc2cnc3cnc(-c4ccc(N)cc4)cn23)cccc1C(=O)Nc1cc(CN2CCN(C)CC2)cc(C(C)C)c1 : 0.83 nM

* * *

test system: BaF3 ETV6-TRKC-G623R; experiment: BaF3 cell proliferation, CCK-8 assay; settings: Mus musculus, BaF3, 72 h, read-out: IC50 (nM ± SD) Solvent Front ETV6-TRKC-G623R
MEASUREMENT TYPE: log10 IC50 (log10 of the value in nM)
Heads up: the numbers are on a log10 scale; they represent IC50 in nM.

Value of measured log10 IC50 for the entry C[C@@H]1CCc2ncc(F)cc2[C@H]2CCCN2c2ccn3ncc(c3n2)C(=O)N1 [Selitrectinib] : 0.98

Value of measured log10 IC50 for the entry CN1CCN(c2ccc(C(=O)Nc3n[nH]c4ccc(Cc5cc(F)cc(F)c5)cc34)c(NC3CCOCC3)c2)CC1 [Entrectinib] : 2.79

Value of measured log10 IC50 for the entry C[C@H]1CNC(=O)c2cnn3ccc(nc23)N[C@H](C)c2cc(F)ccc2O1 [Repotrectinib] : 1.16

Value of measured log10 IC50 for the entry Cc1c(C#Cc2cnc3cnc(-c4ccc(N)cc4)cn23)cccc1C(=O)Nc1cc(CN2CCN(C)CC2)cc(C(C)C)c1 [JND4135] : 0.97

Pending compound:
Value of measured log10 IC50 for the entry O=C(Nc1cnn2ccc(N3CCC[C@@H]3c3cc(F)ccc3F)nc12)N1CC[C@H](O)C1 [Larotrectinib] : 3.10
